experiment: chemical genetic growth profiling, strain panel (AID 1159580);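 also: tested at 20 µM; growth read once vehicle control cultures reached saturation at 30 °C; 1 = growth at the plate median or of vehicle wells; lower values mean less growth of the strain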; conditions: S. cerevisiae deletion strains, growth OD, locus YJR043C, strain POL32
Out of some 5,500 compounds screened, about 2,000 (36%) were called active. Inconclusive results (about 18%) are left out. Rule as the data show it: active = normalized growth mostly below about 0.91 (no sharp cut-off); inconclusive = no clear call, values can overlap the other calls; inactive = mostly above about 0.92. This is one part of the list.
Respond using exactly one of the listed classes: label 1 = active, label 0 = inactive

Some solved cases for reference:
compound	class
CCCn1c(=O)c(C#N)cn(-c2ccc(Cl)cc2)c1=O	label 0
Clc1cccc(Cl)c1NC1=NCCN1	label 0
CCN(CC)C(=O)c1cccc(C)c1	label 0
Cc1ccc(NC(=S)NCCO)c(C)c1	label 0
O=C1NC(=O)C(=O)C(=O)N1	label 0
C=C1C(=O)O[C@@H]2C3O[C@]3(C)CC/C=C(\C)CC[C@@H]12 (stereo partly specified)	label 1
CCOC(=O)[C@H](CCc1ccccc1)N[C@@H](C)C(=O)N1[C@H](C(=O)O)C[C@@H]2CCC[C@@H]21	label 0
O=C1CCC(c2cccs2)=NN1	label 0
NC(CO)C(=O)NNCc1ccc(O)c(O)c1O (stereo unspecified)	label 0
c1ccc(-c2cc3c(nn2)CCc2nonc2-3)cc1	label 0

We now examine a further compound.
Query: For O=C(CSCc1cccc2ccccc12)NNC(=O)c1ccc(F)cc1 , what call appears in the results of this test?
Response: label 0
